EXPERIMENT: Solubility estimates at ambient temperature
Type: physicochemical
CONDITION_CONTEXT: organic solvent or mixture, thermodynamic from solid, NMP:EtOAc (80:20), Form A (Lot 2-4), read-out: Solubility (estimate)
Method: Solubilities were calculated based on the total solvent used to give a solution; actual solubilities may be greater because of the volume of solvent portions utilized or a slow rate of dissolution. […] If dissolution occurred at the first aliquot, the value was reported as “>”. Solubility estimates at ambient temperature were performed in 25 solvents and solvent systems using Form A (Lot 2-4) (Table 13.3).
READOUT_NAME: solubility

Qu. I would be grateful if you could share the reported solubility for `CC(C)n1c(=O)cc(N[C@@H](C)c2ccccc2)[nH]c1=O` .
Ans. ~45 mg/mL

###

EXPERIMENT: Solubility estimates at ambient temperature
Type: physicochemical
CONDITION_CONTEXT: organic solvent or mixture, thermodynamic from solid, DMF:iPrOH (80:20), Form A (Lot 2-4), read-out: Solubility (estimate)
Protocol: Solubilities were calculated based on the total solvent used to give a solution; actual solubilities may be greater because of the volume of solvent portions utilized or a slow rate of dissolution. […] If dissolution occurred at the first aliquot, the value was reported as “>”. Solubility estimates at ambient temperature were performed in 25 solvents and solvent systems using Form A (Lot 2-4) (Table 13.3).
READOUT_NAME: solubility

Qu. Dear colleague, I am looking for the recorded solubility of the following compound: `CC(C)n1c(=O)cc(N[C@@H](C)c2ccccc2)[nH]c1=O`
Ans. ~43 mg/mL

###

EXPERIMENT: Half-life and clearance analysis from early clinical studies by CYP2C19 metabolizer phenotype
Type: in vivo, human
CONDITION_CONTEXT: human, in vivo, oral, CYP2C19 poor metabolizers; read-out: clearance rate
READOUT_NAME: clearance

Qu. Could you tell me which clearance is on file for CC(C)n1c(=O)cc(N[C@@H](C)c2ccccc2)[nH]c1=O [mavacamten] ?
Ans. < 15 mL/min

###

EXPERIMENT: Solubility estimates at ambient temperature
Type: physicochemical
CONDITION_CONTEXT: organic solvent or mixture, thermodynamic from solid, DMSO:p-dioxane (80:20), Form A (Lot 2-4), read-out: Solubility (estimate)
READOUT_NAME: solubility

Qu. What value of solubility has been reported for the following compound? `CC(C)n1c(=O)cc(N[C@@H](C)c2ccccc2)[nH]c1=O`
Ans. > 42 mg/mL

###

EXPERIMENT: Solubility estimates at ambient temperature
Assay type: physicochemical
CONDITION_CONTEXT: organic solvent or mixture, thermodynamic from solid, NMP:water (90:10), Form A (Lot 2-4), read-out: Solubility (estimate)
Experimental: Solubilities were calculated based on the total solvent used to give a solution; actual solubilities may be greater because of the volume of solvent portions utilized or a slow rate of dissolution. […] If dissolution occurred at the first aliquot, the value was reported as “>”. Solubility estimates at ambient temperature were performed in 25 solvents and solvent systems using Form A (Lot 2-4) (Table 13.3).
READOUT_NAME: solubility

Qu. Entry `CC(C)n1c(=O)cc(N[C@@H](C)c2ccccc2)[nH]c1=O` has what solubility?
Ans. ~23 mg/mL

###

EXPERIMENT: Solubility estimates at ambient temperature
Type: physicochemical
CONDITION_CONTEXT: organic solvent or mixture, thermodynamic from solid, THF, Form A (Lot 2-4), read-out: Solubility (estimate)
Protocol: Solubilities were calculated based on the total solvent used to give a solution; actual solubilities may be greater because of the volume of solvent portions utilized or a slow rate of dissolution. […] If dissolution occurred at the first aliquot, the value was reported as “>”. Solubility estimates at ambient temperature were performed in 25 solvents and solvent systems using Form A (Lot 2-4) (Table 13.3).
READOUT_NAME: solubility

Qu. Which value of solubility has been reported for `CC(C)n1c(=O)cc(N[C@@H](C)c2ccccc2)[nH]c1=O` in the records?
Ans. ~2000 µg/mL

###

EXPERIMENT: Solubility estimates at ambient temperature
Type: physicochemical
CONDITION_CONTEXT: aqueous with cosolvent or surfactant or cyclodextrin, thermodynamic from solid, DMSO:water (50:50), Form A (Lot 2-4), read-out: Solubility (estimate)
READOUT_NAME: solubility

Qu. Would you kindly share the measured solubility for `CC(C)n1c(=O)cc(N[C@@H](C)c2ccccc2)[nH]c1=O` ?
Ans. < 1000 µg/mL

###

EXPERIMENT: Solubility estimates at ambient temperature
Format: physicochemical
CONDITION_CONTEXT: organic solvent or mixture, thermodynamic from solid, toluene, Form A (Lot 2-4), read-out: Solubility (estimate)
READOUT_NAME: solubility

Qu. Give its solubility value. Item: `CC(C)n1c(=O)cc(N[C@@H](C)c2ccccc2)[nH]c1=O`
Ans. < 1000 µg/mL

###

EXPERIMENT: Solubility estimates at ambient temperature
Assay type: physicochemical
CONDITION_CONTEXT: organic solvent or mixture, thermodynamic from solid, DMSO:water (90:10), Form A (Lot 2-4), read-out: Solubility (estimate)
READOUT_NAME: solubility

Qu. Fill blank: measured solubility of the compound CC(C)n1c(=O)cc(N[C@@H](C)c2ccccc2)[nH]c1=O [mavacamten] is ____.
Ans. ~5000 µg/mL

###

EXPERIMENT: Solubility estimates at ambient temperature
Type: physicochemical
CONDITION_CONTEXT: organic solvent or mixture, thermodynamic from solid, HFIPA, Form A (Lot 2-4), read-out: Solubility (estimate)
READOUT_NAME: solubility

Qu. Dear colleague, I am looking for the recorded solubility of the following molecule: `CC(C)n1c(=O)cc(N[C@@H](C)c2ccccc2)[nH]c1=O`
Ans. > 60 mg/mL

###

EXPERIMENT: API thermodynamic solubility
Type: physicochemical
CONDITION_CONTEXT: NMP, organic solvent or mixture, thermodynamic from solid
READOUT_NAME: solubility thermodynamic

Qu. Give its solubility thermodynamic value. Item: `CC(C)n1c(=O)cc(N[C@@H](C)c2ccccc2)[nH]c1=O`
Ans. > 150 mg/mL

###

EXPERIMENT: Solubility estimates at ambient temperature
Assay type: physicochemical
CONDITION_CONTEXT: organic solvent or mixture, thermodynamic from solid, nitromethane, Form A (Lot 2-4), read-out: Solubility (estimate)
READOUT_NAME: solubility

Qu. Would you kindly share the measured solubility for `CC(C)n1c(=O)cc(N[C@@H](C)c2ccccc2)[nH]c1=O` ?
Ans. < 1000 µg/mL

###

EXPERIMENT: API thermodynamic solubility
Type: physicochemical
CONDITION_CONTEXT: DCM, organic solvent or mixture, thermodynamic from solid
READOUT_NAME: solubility thermodynamic (µg/mL)
Supply the numeric figure in µg/mL, leaving out any unit text.

Qu. For the molecule shown here, `CC(C)n1c(=O)cc(N[C@@H](C)c2ccccc2)[nH]c1=O` , give the reported solubility thermodynamic.
Ans. 1100

###

EXPERIMENT: Solubility estimates at ambient temperature
Format: physicochemical
CONDITION_CONTEXT: aqueous with cosolvent or surfactant or cyclodextrin, thermodynamic from solid, MeOH:water (50:50), Form A (Lot 2-4), read-out: Solubility (estimate)
READOUT_NAME: solubility

Qu. Looking for the measured solubility of `CC(C)n1c(=O)cc(N[C@@H](C)c2ccccc2)[nH]c1=O` , can you help?
Ans. < 1000 µg/mL

###

EXPERIMENT: Solubility estimates at ambient temperature
Format: physicochemical
CONDITION_CONTEXT: organic solvent or mixture, thermodynamic from solid, DMF:EtOH (75:25), Form A (Lot 2-4), read-out: Solubility (estimate)
READOUT_NAME: solubility

Qu. Which value of solubility has been reported for `CC(C)n1c(=O)cc(N[C@@H](C)c2ccccc2)[nH]c1=O` in the records?
Ans. ~28 mg/mL

###

EXPERIMENT: Solubility estimates at ambient temperature
Type: physicochemical
CONDITION_CONTEXT: organic solvent or mixture, thermodynamic from solid, DMF:toluene (90:10), Form A (Lot 2-4), read-out: Solubility (estimate)
READOUT_NAME: solubility

Qu. Returns the measured solubility for the input compound. Input: `CC(C)n1c(=O)cc(N[C@@H](C)c2ccccc2)[nH]c1=O`
Ans. ~42 mg/mL

###

EXPERIMENT: API thermodynamic solubility
Type: physicochemical
CONDITION_CONTEXT: DMF, organic solvent or mixture, thermodynamic from solid
READOUT_NAME: solubility thermodynamic

Qu. Which solubility thermodynamic is listed for CC(C)n1c(=O)cc(N[C@@H](C)c2ccccc2)[nH]c1=O [mavacamten] ?
Ans. ~130 mg/mL

###

EXPERIMENT: Half-life and clearance analysis from early clinical studies by CYP2C19 metabolizer phenotype
Assay type: in vivo, human
CONDITION_CONTEXT: human, in vivo, oral, CYP2C19 poor metabolizers
Description: The effect of CYP2C19 phenotype and genotype on the metabolism function of the CYP2C19 enzyme has been presently investigated. […] Half-life and clearance rate were analyzed after a single oral dose. Clearance rate was calculated as CL=Dose*F/AUCinf. […] Half-life and clearance rate were analyzed after the last dose upon reaching steady state. Clearance rate was calculated as CL,ss=Dose*F/AUC(0-T). Both trials were combined and analyzed by one-way ANOVA, followed by Tukey's multiple comparison test. […]
READOUT_NAME: half-life

Qu. What value of half-life has been reported for the following compound? CC(C)n1c(=O)cc(N[C@@H](C)c2ccccc2)[nH]c1=O [mavacamten]
Ans. 12 to 30 days
